measurement-target: T1, Arabidopsis COP1^349-675 WD40 domain (Arabidopsis, UniProt P43254 349-675)
T1 sequence: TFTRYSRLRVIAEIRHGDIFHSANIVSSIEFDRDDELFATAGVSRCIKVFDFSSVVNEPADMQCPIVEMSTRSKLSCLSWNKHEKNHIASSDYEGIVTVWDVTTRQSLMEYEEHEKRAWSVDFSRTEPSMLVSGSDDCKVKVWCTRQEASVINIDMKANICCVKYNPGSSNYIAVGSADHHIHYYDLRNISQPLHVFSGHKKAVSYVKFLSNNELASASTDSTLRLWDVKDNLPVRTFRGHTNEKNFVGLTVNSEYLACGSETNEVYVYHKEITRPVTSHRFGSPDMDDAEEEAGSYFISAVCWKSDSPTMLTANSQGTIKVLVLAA
test-method-notes: ITC
pKd: −log10 of the molar value.
observable: pKd

For this binder ( EIRRVPEFGG [HY5^39-48 VP-peptide] ), measured pKd is ~4.70
